TEST: qHTS of pediatric cancer cell lines to identify multiple opportunities for drug repurposing: Primary screen for BT-37 cells (AID 1347094)
EXPERIMENTAL_PARAMETERS: BT-37 viability, CellTiter-Glo luminescence, 48 h; series mostly up to 57.3 µM
Protocol: Drug repurposing or repositioning has been offered as a strategy for drug development in oncology programs. This approach has special potential for childhood cancers and other rare or orphan diseases, where the expected return on new drug development has been a disincentive to pharmaceuticals. […] We employed a titration-based paradigm (quantitative high-throughput screening or qHTS), where all compounds were tested at multiple concentrations for their effect on cell viability. […]
Results filed as inconclusive are left out. Active and inactive are the calls of the source. Calls come from the whole dose curve; as a rule, active = well fitted cell-killing curve with a large enough effect; inconclusive = small, poorly fitted or top-dose-only effect; inactive = flat fitted curve, though single readings scatter.
Respond with a class label; see yes (1) (active), no (0) (inactive)

Please state the recorded outcome for this molecule: `Oc1ccc(Cl)cc1Sc1cc(Cl)ccc1O`
yes (1)

Data provenance is PubChem BioAssay (NCATS).
